Task for the reader: assign each of the following binders its reported kon.
target: T1, AAV8 (adeno-associated virus 8); assay: SPR, AAV amine-coupled to CM5 chip;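 note: nanobodies flowed as analyte at seven concentrations spanning 1–100 nM over immobilized AAV (500–800 RU), kinetic constants derived by fitting the binding curves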
T1 construct: also called adeno-associated virus serotype 8
Reply with the number, then its unit.

// worked examples, kon included
A4-098 (VHH) VHH: VQLQESGGGLVQPGGSLRLSCIASGSIFSINTMGWYRQAPGKQRELVATITRGGNTNYGDSVKGRFTISRDNAKNTVYLQMNTLRPEDTAVYYCHVDEIRESSWTTSNLWGQGTQVTVSS :: 7740 M⁻¹ s⁻¹
A4-077 (VHH) VHH: VQLQESGGGLVQPGGSLRLSCAASGSMFSINIMGWYRQAPGKQREFVATITRGGSTNYADFVKGRFTISRDNAKNTVYLQMNSLRPEDTAVYYCHVDELRDSSWTTSNLWGQGTQVTVSS :: 130000 M⁻¹ s⁻¹
A4-091 (VHH) VHH: VQLQESGGGLVQPGGSLRLSCAASGSRFSINTMGWYRQRAGKQRELVATVTRDGSTTYANSVKGRFTISRDNAKNTVYLQMNSLRPEDTAVYYCHVDELRQSTWTTSNLWGQGTQVTVSS :: 9160 M⁻¹ s⁻¹

Now consider the entry below.
Sample A4-062 (VHH) VHH: VQLQESGGGLVQAGGSLRLSCAASGSSFSINAMGWYRQAPGKQRELVATVTRGGTTNYADSVKGRFTISRDNPKNTVYLQMNSLRPEDTAVYYCHLDEVRESSWTTSNLWGQGTQVTVSS ; kon observed: 137000 M⁻¹ s⁻¹
